target: Serine/threonine-protein kinase pim-3 (Homo sapiens, UniProt Q86V86); test: Inhibition of human Pim-3 using RSRHSSYPAGT as substrate assessed as residual activity at 10 uM measured for 30 mins in presence of [gamma-33P]-ATP relative to control
Label Criterion met when Activity < 20%; otherwise Criterion not met.

Compound: Cc1ccc(S(=O)(=O)OCCCOC2Cn3cc(C=O)c4ccc5c6ccccc6n(c5c43)C2)cc1 (stereo not given)
Class Name: Criterion not met
--
Compound: N#CCOC1Cn2cc(C=O)c3ccc4c5ccccc5n(c4c32)C1 (stereo not given)
Class Name: Criterion met
--
Compound: O=Cc1cn2c3c1ccc1c4ccccc4n(c13)CC(OCCCBr)C2 (stereo not given)
Class Name: Criterion met
--
Compound: O=Cc1cn2c3c1ccc1c4ccccc4n(c13)CC(OCCN1CCOCC1)C2 (stereo not given)
Class Name: Criterion not met
--
Compound: O=Cc1cn2c3c1ccc1c4ccccc4n(c13)CC(OCCN1CCCCC1)C2 (stereo not given)
Class Name: Criterion not met
--
Compound: CS(=O)(=O)OC1Cn2cc(C=O)c3ccc4c5ccccc5n(c4c32)C1 (stereo not given)
Class Name: Criterion met
--
Compound: Cc1ccc(S(=O)(=O)NC2Cn3cc(C=O)c4ccc5c6ccccc6n(c5c43)C2)cc1 (stereo not given)
Class Name: Criterion not met
--
Compound: O=Cc1cn2c3c1ccc1c4ccccc4n(c13)CC(OCCCN1CCCC1)C2 (stereo not given)
Class Name: Criterion met
--
Compound: Cc1ccc(S(=O)(=O)OCCOC2Cn3cc(C=O)c4ccc5c6ccccc6n(c5c43)C2)cc1 (stereo not given)
Class Name: Criterion not met

====

Examples of molecules with documented pIC50 follow.
target: Serine/threonine-protein kinase pim-1 (Homo sapiens, UniProt P11309); test: Inhibition of human Pim-1 using RSRHSSYPAGT as substrate measured for 30 mins in presence of [gamma-33P]-ATP
Sequence (P11309 whole entry): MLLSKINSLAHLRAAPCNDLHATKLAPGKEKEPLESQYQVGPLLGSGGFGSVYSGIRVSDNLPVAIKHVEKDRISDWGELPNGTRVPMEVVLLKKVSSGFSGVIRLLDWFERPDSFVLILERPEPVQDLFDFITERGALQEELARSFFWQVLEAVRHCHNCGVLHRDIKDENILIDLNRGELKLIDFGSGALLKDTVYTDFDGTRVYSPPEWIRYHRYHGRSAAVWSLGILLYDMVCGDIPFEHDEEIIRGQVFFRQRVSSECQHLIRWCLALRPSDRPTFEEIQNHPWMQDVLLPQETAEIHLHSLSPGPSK
pIC50: −log10 of the molar value.

Molecule: CS(=O)(=O)OC1Cn2cc(C=O)c3ccc4c5ccccc5n(c4c32)C1 (stereo not given)
Measurement Target: Serine/threonine-protein kinase pim-1 (Homo sapiens, UniProt P11309)
pIC50: 5.81
--
Molecule: O=Cc1cn2c3c1ccc1c4ccccc4n(c13)CC(OCCO)C2 (stereo not given)
Measurement Target: Serine/threonine-protein kinase pim-1 (Homo sapiens, UniProt P11309)
pIC50: 5.96
--
Molecule: O=Cc1cn2c3c1ccc1c4ccccc4n(c13)CC(OCCCBr)C2 (stereo not given)
Measurement Target: Serine/threonine-protein kinase pim-1 (Homo sapiens, UniProt P11309)
pIC50: 6.13
--
Molecule: N#CCOC1Cn2cc(C=O)c3ccc4c5ccccc5n(c4c32)C1 (stereo not given)
Measurement Target: Serine/threonine-protein kinase pim-1 (Homo sapiens, UniProt P11309)
pIC50: 6.41
--
Molecule: O=Cc1cn2c3c1ccc1c4ccccc4n(c13)CC(O)C2 (stereo not given)
Measurement Target: Serine/threonine-protein kinase pim-1 (Homo sapiens, UniProt P11309)
pIC50: 5.85

====

target: Serine/threonine-protein kinase pim-1 (Homo sapiens); assay: Inhibition of human Pim-1 using RSRHSSYPAGT as substrate assessed as residual activity at 10 uM measured for 30 mins in presence of [gamma-33P]-ATP relative to control
Sequence (P11309 whole entry, looked up): as the sequence (P11309 whole entry) above
Item-by-item account of Activity

Compound: O=Cc1cn2c3c1ccc1c4ccccc4n(c13)CC(OCCN1CCCCC1)C2 (centres undefined)
Activity (%): 30

Compound: O=Cc1cn2c3c1ccc1c4ccccc4n(c13)CC(OCCCN1CCCC1)C2 (centres undefined)
Activity (%): 24.1

Compound: O=Cc1cn2c3c1ccc1c4ccccc4n(c13)CC(OCCN1CCOCC1)C2 (centres undefined)
Activity (%): 34

Compound: CCN(CC)CCCOC1Cn2cc(C=O)c3ccc4c5ccccc5n(c4c32)C1 (centres undefined)
Activity (%): 29

====

// reported Activity per item
biological target: Serine/threonine-protein kinase pim-1 (Homo sapiens); experiment: Inhibition of human Pim-1 using RSRHSSYPAGT as substrate assessed as residual activity at 1 uM measured for 30 mins in presence of [gamma-33P]-ATP relative to control

Compound: O=Cc1cn2c3c1ccc1c4ccccc4n(c13)CC(OCCCBr)C2 (configuration not stated)
Activity / %: 54
//
Compound: CN1CCN(CCOC2Cn3cc(C=O)c4ccc5c6ccccc6n(c5c43)C2)CC1 (configuration not stated)
Activity / %: 94
//
Compound: N#CCOC1Cn2cc(C=O)c3ccc4c5ccccc5n(c4c32)C1 (configuration not stated)
Activity / %: 9.5
//
Compound: O=Cc1cn2c3c1ccc1c4ccccc4n(c13)CC(OCCCO)C2 (configuration not stated)
Activity / %: 54.9
//
Compound: O=Cc1cn2c3c1ccc1c4ccccc4n(c13)CC(OCCCN1CCCCC1)C2 (configuration not stated)
Activity / %: 66
//
Compound: O=Cc1cn2c3c1ccc1c4ccccc4n(c13)CC(OCCN1CCCC1)C2 (configuration not stated)
Activity / %: 84
//
Compound: CCN(CC)CCCOC1Cn2cc(C=O)c3ccc4c5ccccc5n(c4c32)C1 (configuration not stated)
Activity / %: 71.6

====

target: Serine/threonine-protein kinase pim-1 (Homo sapiens, UniProt P11309); assay: Inhibition of human Pim-1 using RSRHSSYPAGT as substrate assessed as residual activity at 10 uM measured for 30 mins in presence of [gamma-33P]-ATP relative to control
Rule for this label: Met means Activity is less than 9%; Not met means Activity is at least 9%.

Molecule: CN1CCN(CCOC2Cn3cc(C=O)c4ccc5c6ccccc6n(c5c43)C2)CC1 (stereo not given)
Class Name: Not met

Molecule: CS(=O)(=O)OC1Cn2cc(C=O)c3ccc4c5ccccc5n(c4c32)C1 (stereo not given)
Class Name: Met

Molecule: O=Cc1cn2c3c1ccc1c4ccccc4n(c13)CC(OCCN1CCCC1)C2 (stereo not given)
Class Name: Not met

Molecule: O=Cc1cn2c3c1ccc1c4ccccc4n(c13)CC(OCCCN1CCOCC1)C2 (stereo not given)
Class Name: Not met

====

molecular target: Serine/threonine-protein kinase pim-3 (Homo sapiens); test: Inhibition of human Pim-3 using RSRHSSYPAGT as substrate assessed as residual activity at 1 uM measured for 30 mins in presence of [gamma-33P]-ATP relative to control
Reported Activity values for a set of molecules
Quantity Kind: Activity (%)

Molecule: Cc1ccc(S(=O)(=O)OCCOC2Cn3cc(C=O)c4ccc5c6ccccc6n(c5c43)C2)cc1 (stereo not drawn)
Reported: 65
--
Molecule: CCN(CC)CCCOC1Cn2cc(C=O)c3ccc4c5ccccc5n(c4c32)C1 (stereo not drawn)
Reported: 60.8
--
Molecule: O=Cc1cn2c3c1ccc1c4ccccc4n(c13)CC(OCCCO)C2 (stereo not drawn)
Reported: 49.6
--
Molecule: O=Cc1cn2c3c1ccc1c4ccccc4n(c13)CC(OCCCN1CCCCC1)C2 (stereo not drawn)
Reported: 45
--
Molecule: CN1CCN(CCOC2Cn3cc(C=O)c4ccc5c6ccccc6n(c5c43)C2)CC1 (stereo not drawn)
Reported: 60
--
Molecule: O=Cc1cn2c3c1ccc1c4ccccc4n(c13)CC(OCCCN1CCOCC1)C2 (stereo not drawn)
Reported: 70
--
Molecule: O=Cc1cn2c3c1ccc1c4ccccc4n(c13)CC(OCCCN1CCCC1)C2 (stereo not drawn)
Reported: 54
--
Molecule: CN1CCN(CCCOC2Cn3cc(C=O)c4ccc5c6ccccc6n(c5c43)C2)CC1 (stereo not drawn)
Reported: 51
